Quick reference: IC50 of the listed items.
- EXPERIMENTAL TARGET: recombinant human MAO-A (monoamine oxidase-A) (Homo sapiens, UniProt P21397)
- Construct: purchased Sigma-Aldrich
- Sequence (P21397 whole entry): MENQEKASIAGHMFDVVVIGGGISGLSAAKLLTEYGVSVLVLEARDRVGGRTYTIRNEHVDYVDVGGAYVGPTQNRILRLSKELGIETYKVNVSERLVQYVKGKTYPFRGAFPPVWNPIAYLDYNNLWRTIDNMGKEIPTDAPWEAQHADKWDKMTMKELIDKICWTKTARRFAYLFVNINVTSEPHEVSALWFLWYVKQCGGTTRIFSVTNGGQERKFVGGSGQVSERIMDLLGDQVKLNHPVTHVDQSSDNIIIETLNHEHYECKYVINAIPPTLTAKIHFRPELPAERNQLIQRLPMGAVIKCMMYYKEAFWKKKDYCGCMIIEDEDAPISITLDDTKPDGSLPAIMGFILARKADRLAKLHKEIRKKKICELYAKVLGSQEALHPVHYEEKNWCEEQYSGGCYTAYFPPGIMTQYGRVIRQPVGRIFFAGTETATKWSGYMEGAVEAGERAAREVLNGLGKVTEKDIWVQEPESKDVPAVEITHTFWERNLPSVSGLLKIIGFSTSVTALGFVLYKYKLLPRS
- ASSAY COMMENT: Amplex Red HRP-coupled amine oxidase activity evaluation, recombinant human MAO-A
- Format: biochemical
- CONDITION SUMMARY: substrate 0.5 mM tyramine; read-out: Inhibitory Activity (IC50, nM) MAO-A
Counter-ions that a name gives are not always drawn.

>  <COMPOUND>
CCn1cc(-c2cccc(-n3nnn(CC(CN)=C(F)F)c3=O)c2)cn1 [Example 15, trifluoroacetate]

>  <IC50>
> 100000 nM

$$$$
>  <COMPOUND>
CS(=O)(=O)c1ccc(-c2ccc(-n3nnn(CC(CN)=C(F)F)c3=O)cc2)cc1 [Example 16, trifluoroacetate]

>  <IC50>
> 100000 nM

$$$$
>  <COMPOUND>
NCC(Cn1nnn(-c2cncc(-c3ccc4c(c3)OCO4)c2)c1=O)=C(F)F [Example 48, trifluoroacetate]

>  <IC50>
36900 nM

$$$$
>  <COMPOUND>
Cc1ccc(-c2ccc3c(c2)CCC(=O)N3C)nc1-n1nnn(CC(CN)=C(F)F)c1=O [Example 26, trifluoroacetate]

>  <IC50>
> 100000 nM

$$$$
>  <COMPOUND>
CN(C)c1ccc(-c2csc(-n3nnn(CC(CN)=C(F)F)c3=O)c2)cn1 [Example 38, trifluoroacetate]

>  <IC50>
> 100000 nM

$$$$
>  <COMPOUND>
CN1C(=O)CCc2cc(-c3cccc(Cn4nnn(CC(CN)=C(F)F)c4=O)c3)ccc21 [Example 33, trifluoroacetate]

>  <IC50>
81400 nM

$$$$
>  <COMPOUND>
CN1C(=O)CCc2cc(-c3csc(-n4nnn(CC(CN)=C(F)F)c4=O)c3)ccc21 [Example 41, trifluoroacetate]

>  <IC50>
> 100000 nM

$$$$
